B1: LINE1-full (parent)
chain: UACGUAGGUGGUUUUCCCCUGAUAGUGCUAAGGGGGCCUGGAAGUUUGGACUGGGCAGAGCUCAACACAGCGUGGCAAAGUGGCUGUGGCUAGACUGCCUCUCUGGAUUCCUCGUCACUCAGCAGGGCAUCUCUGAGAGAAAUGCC

Variants of: B1
experiment.summary: self-cleavage, relative activity (ratio to wild type); higher = more cleavage; in vitro, sequencing; the parent is a self-cleaving ribozyme
Label satisfied for high-side self-cleavage (at or above 0.3) and not satisfied for low-side self-cleavage (below it).

Solved cases below.
mutation.string	class.assignment
A57U A140U	not satisfied
U47C A94C	not satisfied
A42G C68U	not satisfied
A59C	satisfied
A31U U81A	satisfied

Record C63U A136G ; criterion: self-cleavage no lower than 0.3. Met?
satisfied

Record A65G A69U ; criterion: self-cleavage no lower than 0.3. Met?
not satisfied

Record G55A A121G ; criterion: self-cleavage no lower than 0.3. Met?
not satisfied

Record A64U U108C ; criterion: self-cleavage no lower than 0.3. Met?
satisfied

Record G32C A42U ; criterion: self-cleavage no lower than 0.3. Met?
satisfied
